# System: A549
# test details: Anticancer activity against human A549 cells assessed as inhibition of cell growth incubated for 48 hrs by MTT assay
# Type: functional, cell-based
# experimental context: A549, 48 h
assay endpoint: IC50

- molecule: "C=C1C(=O)O[C@H]2C3=CC[C@@H]4C(C)(C)C(=O)CC[C@@]4(C)[C@@H]3CC[C@@H]12"
  value: "> 10 µM"
- molecule: "C[C@@H]1CC[C@]2(C(=O)O)CC[C@]3(C)C(=CC[C@@H]4[C@@]5(C)C(CO)=CC(C)(C)[C@@H]5CC[C@]43C)[C@@H]2[C@]1(C)O [HYPTASIENIC ACID]"
  value: "7.4 µM"
- molecule: "C=C1C(=O)[C@]23C[C@H]1CC[C@H]2[C@]1(C)CC[C@@H](O)C(C)(C)[C@H]1C[C@@H]3OC(C)=O"
  value: "4.7 µM"
- molecule: "CC(=O)O[C@H]1C(=O)[C@@]2(C)[C@H]([C@H](OC(=O)c3ccccc3)[C@]3(O)C[C@H](OC(=O)[C@H](O)[C@@H](NC(=O)c4ccccc4)c4ccccc4)C(C)=C1C3(C)C)[C@]1(OC(C)=O)CO[C@@H]1C[C@@H]2O [PACLITAXEL]"
  value: "0.018 µM"
- molecule: "C=C1C(=O)[C@@]23CC[C@@H]4C(C)(C)C(=O)CC[C@@]4(C)[C@@H]2CC[C@@H]1C3"
  value: "> 10 µM"
